// data source = patent US20040054130A1

- Tested on: normal male Wistar rats
- Method summary: Intravenous insulin tolerance test (IVITT)
- Assay type: in vivo, rat
- Reported conditions: 45 min; 5 μmol/kg i.v., 0.1 U insulin/kg
Ends that are not written are not given here.
Record form. Attribute: Reduction in Blood Glucose. Fill in for each entry.
A complete answer gives the number and then names the unit.

Can you look up Reduction in Blood Glucose on normal male Wistar rats for Leu-Ser-Arg-Leu-Phe-Asu-Asn-Ala (LSRLFDNA-NH2; not fully specified; printed as Leu-Ser-Arg-Leu-Phe-Asu-Asn-Ala) [Peptide 7] ? 1.65 ± 0.12 mmol/L

Can you look up Reduction in Blood Glucose on normal male Wistar rats for Leu-Ser-Gly-Leu-Phe-Asu-Asn-Ala (LSGLFDNA-NH2; not fully specified; printed as Leu-Ser-Gly-Leu-Phe-Asu-Asn-Ala) [Peptide 9] ? 0.88 ± 0.15 mmol/L

Can you look up Reduction in Blood Glucose on normal male Wistar rats for Arg-Leu-Phe-Asp-Asn-Ala (RLFDNA-NH2) [Peptide 5] ? 1.07 ± 0.15 mmol/L
